assay: Toxicokinetic assessment in wild-type CByB6F1 mice (Day 14); type: in vivo; conditions: CByB6F1 (wild-type), mouse; female, pretomanid 30 mg/kg/day oral, Day 14, plasma

>  <ENTRY_SMILES>
O=[N+]([O-])c1cn2c(n1)OC[C@@H](OCc1ccc(OC(F)(F)F)cc1)C2

>  <Cmax (ng/mL)>
6900

$$$$

----------
test: Toxicokinetic assessment in wild-type CByB6F1 mice (Day 14); format: in vivo; settings: wild-type CByB6F1, mouse; female, pretomanid 10 mg/kg/day oral, Day 14, plasma
MEASUREMENT_LABEL: Cmax (ng/mL)

>  <MOLECULE>
O=[N+]([O-])c1cn2c(n1)OC[C@@H](OCc1ccc(OC(F)(F)F)cc1)C2 [Pretomanid]

>  <UNIT_NAME>
ng/mL

>  <NUMBER>
2900

$$$$

----------
test: Toxicokinetic assessment in wild-type CByB6F1 mice (Day 14); assay type: in vivo; details: CByB6F1 (wild-type), mouse; female, pretomanid 30 mg/kg/day oral, Day 14, plasma; read-out: Pretomanid AUC0-24

>  <ENTRY_SMILES>
O=[N+]([O-])c1cn2c(n1)OC[C@@H](OCc1ccc(OC(F)(F)F)cc1)C2

>  <UNIT_NAME>
ng·h/mL

>  <AUC(0-t)>
87500

$$$$

----------
test: Toxicokinetic assessment in wild-type CByB6F1 mice (Day 14); format: in vivo; conditions: males, highest dose in the carcinogenicity study
MEASUREMENT_LABEL: Mean M50 AUC0-24

>  <ENTRY_SMILES>
O=[N+]([O-])c1cn2c(n1)OC[C@@H](O)C2

>  <RESULT>
4.6 µg·h/mL

$$$$

----------
experiment: Toxicokinetic assessment in wild-type CByB6F1 mice (Day 14); type: in vivo; conditions: wild-type CByB6F1, mouse; male, pretomanid 40 mg/kg/day oral, Day 14, plasma; read-out: Pretomanid AUC0-24

>  <ENTRY_SMILES>
O=[N+]([O-])c1cn2c(n1)OC[C@@H](OCc1ccc(OC(F)(F)F)cc1)C2

>  <AUC(0-t) [µg·h/mL]>
112

$$$$

----------
experiment: Mass balance study in humans using 14C-labelled pretomanid; type: in vivo; settings: human, plasma, oral; 6% of the pretomanid therapeutic AUC0-24, 200 mg/day; read-out: Estimated human AUC0-24 of M50

>  <ENTRY_SMILES>
O=[N+]([O-])c1cn2c(n1)OC[C@@H](O)C2

>  <AUC(0-t)>
~3000 ng·h/mL

$$$$

----------
experiment: Toxicokinetic assessment in wild-type CByB6F1 mice (Day 14); assay type: in vivo; settings: wild-type CByB6F1, mouse; male, pretomanid 15 mg/kg/day oral, Day 14, plasma; read-out: Pretomanid AUC0-24

>  <ENTRY_SMILES>
O=[N+]([O-])c1cn2c(n1)OC[C@@H](OCc1ccc(OC(F)(F)F)cc1)C2

>  <AUC(0-t) / ng·h/mL>
50800

$$$$

----------
assay: Toxicokinetic assessment in wild-type CByB6F1 mice (Day 14); type: in vivo; conditions: CByB6F1 (wild-type), mouse; female, pretomanid 10 mg/kg/day oral, Day 14, plasma; read-out: Pretomanid AUC0-24
MEASUREMENT_LABEL: AUC(0-t) (ng·h/mL)

>  <ENTRY_SMILES>
O=[N+]([O-])c1cn2c(n1)OC[C@@H](OCc1ccc(OC(F)(F)F)cc1)C2

>  <MEASUREMENT_LABEL>
AUC(0-t)

>  <NUMBER>
24900

$$$$

----------
experiment: Toxicokinetic assessment in wild-type CByB6F1 mice (Day 14); assay type: in vivo; details: both sexes, CByB6F1 (wild-type), mouse, plasma, oral; high dose (40 male, 80 female mg/kg/day); read-out: Gender averaged mouse AUC0-24 of pretomanid
MEASUREMENT_LABEL: AUC(0-t) (µg·h/mL)

>  <ENTRY_SMILES>
O=[N+]([O-])c1cn2c(n1)OC[C@@H](OCc1ccc(OC(F)(F)F)cc1)C2

>  <MEASUREMENT_LABEL>
AUC(0-t)

>  <NUMBER>
149

$$$$

----------
assay: Toxicokinetic assessment in wild-type CByB6F1 mice (Day 14); format: in vivo; conditions: wild-type CByB6F1, mouse; male, pretomanid 5 mg/kg/day oral, Day 14, plasma; read-out: Pretomanid AUC0-24
MEASUREMENT_LABEL: AUC(0-t) (ng·h/mL)

>  <ENTRY_SMILES>
O=[N+]([O-])c1cn2c(n1)OC[C@@H](OCc1ccc(OC(F)(F)F)cc1)C2

>  <NUMBER>
13700

$$$$

----------
test: Plasma exposure in the mouse micronucleus study; format: in vivo, mice; settings: male, CD-1(ICR) BR, mouse; single oral dose 2000 mg/kg, plasma; read-out: Mean AUClast
MEASUREMENT_LABEL: AUC(0-t) (µg·h/mL)

>  <ENTRY_SMILES>
O=[N+]([O-])c1cn2c(n1)OC[C@@H](OCc1ccc(OC(F)(F)F)cc1)C2

>  <MEASUREMENT_LABEL>
AUC(0-t)

>  <NUMBER>
1140

$$$$

----------
assay: Toxicokinetic assessment in wild-type CByB6F1 mice (Day 14); assay type: in vivo; conditions: wild-type CByB6F1, mouse; male, pretomanid 15 mg/kg/day oral, Day 14, plasma
MEASUREMENT_LABEL: Cmax (µg/mL)

>  <COMPOUND>
O=[N+]([O-])c1cn2c(n1)OC[C@@H](OCc1ccc(OC(F)(F)F)cc1)C2 [Pretomanid]

>  <MEASUREMENT_LABEL>
Cmax

>  <NUMBER>
4.9

$$$$
